tested_on: activated ERK2 (Homo sapiens (Human), UniProt P28482)
Sequence (P28482 whole entry): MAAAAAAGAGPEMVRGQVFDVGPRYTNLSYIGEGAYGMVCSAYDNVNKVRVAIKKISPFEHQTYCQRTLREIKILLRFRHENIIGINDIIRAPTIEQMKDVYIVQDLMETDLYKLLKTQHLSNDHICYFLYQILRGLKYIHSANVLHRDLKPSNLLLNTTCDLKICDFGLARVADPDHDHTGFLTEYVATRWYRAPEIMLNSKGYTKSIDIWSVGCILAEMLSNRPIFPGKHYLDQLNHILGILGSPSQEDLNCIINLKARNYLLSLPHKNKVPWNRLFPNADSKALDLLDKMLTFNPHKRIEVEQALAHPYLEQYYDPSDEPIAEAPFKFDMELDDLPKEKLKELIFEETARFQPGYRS
assay_text: Activated ERK2 (20 pM) Kinase Assay (AlphaScreen, ERKtide phosphorylation)
Assay type: biochemical
condition_details: 0.02 nM ERK2, 400 nM ERKtide peptide, 35 μM ATP, 30 min preincubation
pIC50: −log10 of the molar value.
Cut-off 10 on pIC50, inclusive. At or above means met; below means not met.

Here's what some known entries look like.
Nc1ncc(C2CCOCC2)cc1-c1ncc(C(=O)N[C@H](CO)c2ccccc2)cn1 [Example 90]: not met
Cc1nn(C(F)F)cc1-c1cnc(N)c(-c2ccc(C(=O)N[C@H](CO)c3cccc(CF)c3)c(F)c2)c1 [Example 261]: met

Proceed to the following item.
Would you say Nc1ncc([C@H]2CC[C@H](O)CC2)nc1-c1ccc(C(=O)N[C@H](CNCCF)c2cc(F)cc(Br)c2)c(F)c1 [Example 412] shows pIC50 at minimum 10?
not met

Data origin: patent US9242996B2
